Biological target: Vhr1 (UniProt P40522)
Sequence: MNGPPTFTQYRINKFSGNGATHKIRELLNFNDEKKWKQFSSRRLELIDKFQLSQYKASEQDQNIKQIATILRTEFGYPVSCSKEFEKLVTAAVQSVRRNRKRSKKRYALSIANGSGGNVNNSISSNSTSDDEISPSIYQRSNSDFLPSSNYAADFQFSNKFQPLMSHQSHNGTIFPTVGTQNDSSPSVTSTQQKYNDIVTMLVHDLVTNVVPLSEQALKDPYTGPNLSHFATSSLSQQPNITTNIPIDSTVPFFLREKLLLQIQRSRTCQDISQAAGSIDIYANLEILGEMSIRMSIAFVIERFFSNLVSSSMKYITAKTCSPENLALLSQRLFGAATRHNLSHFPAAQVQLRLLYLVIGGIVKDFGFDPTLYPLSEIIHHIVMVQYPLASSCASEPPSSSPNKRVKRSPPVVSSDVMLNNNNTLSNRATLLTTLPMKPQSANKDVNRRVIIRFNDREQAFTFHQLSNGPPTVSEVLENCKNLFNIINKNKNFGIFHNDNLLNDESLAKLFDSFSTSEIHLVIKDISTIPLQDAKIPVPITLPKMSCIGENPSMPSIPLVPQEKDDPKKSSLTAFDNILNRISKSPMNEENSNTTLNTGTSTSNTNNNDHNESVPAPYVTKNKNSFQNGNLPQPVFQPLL
Assay: PBM E-score (8-mer binding enrichment) (E-score (-0.5 to 0.5)); higher = stronger / more preferred TF binding
Conditions: protein concentration: 200 nM; construct: GST-full length
Over roughly 33,000 sequences, “E-score (-0.5 to 0.5)” has its median near -0.012; the highest 2% begin near 0.27. The list comes from a sample in which the highest values are over-represented; it also holds close analogues and randomly drawn sequences.
Tick True if PBM E-score is 0.2 or greater. Tick False if PBM E-score is less than 0.2.

GCAGCGAC	False
GCACACAC	False
ACACACAC	True
ACCGCGGG	True
ACAATATA	True
CACCCGAC	False
ACACTATA	False
ACCCATAC	True
AAGTCCGA	False
ACCCATAG	False
AATACAGG	False
CGCACCAG	True
CCGTGGCG	False
ACACTATG	True

---

Target: Vhr1 (UniProt P40522)
Sequence: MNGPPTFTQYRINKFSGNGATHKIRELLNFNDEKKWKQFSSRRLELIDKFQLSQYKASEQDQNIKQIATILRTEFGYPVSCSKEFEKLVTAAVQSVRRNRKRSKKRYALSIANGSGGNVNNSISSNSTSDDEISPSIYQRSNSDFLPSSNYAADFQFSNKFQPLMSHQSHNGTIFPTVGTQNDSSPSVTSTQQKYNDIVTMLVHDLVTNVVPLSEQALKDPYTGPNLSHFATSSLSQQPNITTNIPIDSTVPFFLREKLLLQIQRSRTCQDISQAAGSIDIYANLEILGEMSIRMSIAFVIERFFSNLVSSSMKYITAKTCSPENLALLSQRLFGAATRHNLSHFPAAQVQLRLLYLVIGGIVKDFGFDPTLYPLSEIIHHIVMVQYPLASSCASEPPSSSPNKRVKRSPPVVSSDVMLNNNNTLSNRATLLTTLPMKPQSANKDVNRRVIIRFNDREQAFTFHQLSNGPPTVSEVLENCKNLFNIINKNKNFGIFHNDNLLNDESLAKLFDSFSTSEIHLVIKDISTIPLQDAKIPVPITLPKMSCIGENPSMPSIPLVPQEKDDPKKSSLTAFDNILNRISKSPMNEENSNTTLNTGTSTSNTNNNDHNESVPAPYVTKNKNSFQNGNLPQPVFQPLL
Assay: PBM E-score (8-mer binding enrichment) (E-score (-0.5 to 0.5)); higher = stronger / more preferred TF binding
Details: protein concentration: 200 nM; construct: GST-full length
Whole data set: some 33,000 sequences, median “E-score (-0.5 to 0.5)” near -0.012, cut for the highest 2% near 0.27. This is one part of a sample in which the highest values are shown more often than they occur.
parameter: PBM E-score

CTGACTGC	0.298
AAATCACC	0.312
AGGCAAGG	-0.292
AAGTCGCC	-0.0133
CGATCCCG	0.0117
ATCGACGG	0.0804
TACTCACA	0.285
GTACTTCA	0.114
GATTGGGC	-0.102
GCATCACC	-0.0259
AACTCACC	0.224
ATACATAG	0.108
AGGACTGA	-0.143
GTACATAC	0.119
AAGTCGCA	0.173
GAGTCGAC	0.294
ACCTCACG	-0.0286
CAGTCGCC	0.147
TCGTCGCA	0.111
CCGGCCGA	0.031
ATCAGAAC	0.0119
ACACATAG	0.102
ATGACTGG	0.298
CAATCACC	0.238
GAGTCGCC	0.424
ATGATATA	0.0327
GACTCACA	0.44
CAATCACG	0.211
CTCCAATC	0.0374
CAGACTGC	0.00779
AAAGTAGG	-0.0386
TAGTCGAA	0.0212
GCTAGAAA	-0.0866
AACTCACG	0.109
CAAGACGA	-0.109
CGCAATCC	-0.0979
CCCTCTAC	-0.113
CATGTCTA	0.0965
GGTGCACA	0.0381

---

The entries below come with measured PBM E-score values attached.
Target: Vhr1 (UniProt P40522)
Sequence: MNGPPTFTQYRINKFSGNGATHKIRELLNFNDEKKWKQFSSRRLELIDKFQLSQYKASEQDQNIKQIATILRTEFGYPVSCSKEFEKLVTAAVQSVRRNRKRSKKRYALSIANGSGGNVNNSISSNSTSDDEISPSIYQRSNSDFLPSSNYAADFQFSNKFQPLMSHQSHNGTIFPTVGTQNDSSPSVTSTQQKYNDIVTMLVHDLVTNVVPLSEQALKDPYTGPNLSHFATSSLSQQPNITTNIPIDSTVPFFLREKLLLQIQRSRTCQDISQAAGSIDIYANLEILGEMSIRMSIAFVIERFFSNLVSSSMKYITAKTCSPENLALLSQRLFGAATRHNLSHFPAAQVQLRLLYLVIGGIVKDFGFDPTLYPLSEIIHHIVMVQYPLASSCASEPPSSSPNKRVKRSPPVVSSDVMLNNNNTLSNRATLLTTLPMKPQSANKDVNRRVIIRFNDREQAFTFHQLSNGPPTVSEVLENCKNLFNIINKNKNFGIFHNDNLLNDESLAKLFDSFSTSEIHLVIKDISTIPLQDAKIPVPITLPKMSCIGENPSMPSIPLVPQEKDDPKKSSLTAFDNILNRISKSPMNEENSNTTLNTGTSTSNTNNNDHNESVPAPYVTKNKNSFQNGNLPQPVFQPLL
Assay: PBM E-score (8-mer binding enrichment) (E-score (-0.5 to 0.5)); higher = stronger / more preferred TF binding
Conditions: protein concentration: 200 nM; construct: GST-full length
The full ranking holds about 33,000 sequences; the median of “E-score (-0.5 to 0.5)” is about -0.012, and the highest 2% start at about 0.27. Many of the other results were omitted from the sample, so the highest values are more common in it than they were.
parameter: PBM E-score

GCGACTAA	0.316
AGAACGAC	0.00162
GGTCATAC	0.0467
GCCTTCAC	-0.0812
ACTGGGTA	-0.00457
ATATCTGC	0.104
AATCACGG	0.259
AGAGTCGA	0.157
AGTCATAT	0.421
CTGGACCC	-0.213
AGTCACGA	0.411
CATTCACC	0.0887
GAGCCAAC	-0.0688
CTAGTATA	0.0509
GCTCATAA	0.0821
CGTCATAC	0.189
CTCTAGCC	-0.167
AGTGTTGG	0.107
ATTTCTGA	-0.152
GCGCGCGA	0.185
ATATTATA	0.058
ACCTCCAT	0.0255
GTTCAAAC	-0.0829
TCTCAACA	0.113
CCAGTCGA	0.0785
ACTCATAG	0.264
AAAGTCGC	0.137
ATGCAGTC	0.184
ACTCAACG	0.171
TCGCGCAA	0.0709
CGAGTCGA	0.224
AGTCACGG	0.417
CGTCATAA	0.016
GGTCACGA	0.09
CCAGTCGC	0.13
ATGCAGTG	0.276
ACTCATAT	0.229
GGTGCTGA	0.042
CAAGATAA	0.0275
TGTCATAA	-0.0558
ATCAAAGG	-0.0468
ATTTTGGG	-0.177
ATTGTTTC	0.217
ATAGTCGC	0.243
GGGCCAAC	-0.157
GACGACTC	0.358
GACGACGC	-0.049
AGAGTCGC	0.338
AATCAACA	0.303
ACCTGGAC	0.0512
CCGCGCGA	0.22
AGTCATAA	0.344
AGAGTCTG	-0.106
GTCAATCA	0.221
TCTCCACA	-0.0495
ATGCCTGA	0.0818
ATTGTTCC	0.127
GCGCGCAA	0.3
AACGGGCC	-0.204
CAAGCGTG	-0.00913
TCACCCAA	0.177
GACGACTA	0.162
GCACCCCA	0.151
AATGAATC	0.23
TATCAACA	0.172
GCGAACAC	-0.0481
ATATTATC	0.0882
AACGACTA	0.0488
CAGACGGC	-0.0191
ACTCCACG	-0.104
AGTTGGAT	0.127
ATTAGCAA	0.124
ATTCACGC	0.117
AATCAATC	0.186
AACGACTT	-0.216
TCGACTAA	0.207
TCAAGCGA	-0.0594
ACAGCGAT	-0.04
AGAGTCGG	0.329
GCTTTATA	-0.261
AGACATAT	0.16
GTGGGACA	0.0875
